System: P. falciparum 3D7 parasites
Protocol Text: P. falciparum growth inhibition assay, 2-cycle (120 h treatment), delayed-death screen and dose-response
Format: cell-based, Plasmodium falciparum
Assay Setup: P. falciparum 3D7, 120 h, parasite screen at 2 μg/mL, % growth, replicate 2
Overview of reported Pf_120h_%Growth_Rep2 across a group of compounds:
Number in %, nothing else.

compound=C[C@@H]1Cc2ccc(C(=O)N[C@@H](Cc3ccccc3)C(=O)O)c(O)c2C(=O)O1 measured=126.27
compound=Oc1cc(O)cc(O)c1 measured=11.00
compound=CC[C@H]1C[C@@H]2CC[C@@H](O2)[C@@H](C)C(=O)O[C@H](C)C[C@H]2CC[C@H](O2)[C@H](C)C(=O)O[C@@H](C)C[C@@H]2CC[C@@H](O2)[C@@H](C)C(=O)O[C@H](C)C[C@H]2CC[C@H](O2)[C@H](C)C(=O)O1 measured=21.38
compound="CON=C1CC2(CC3CC(CC=C(C)CC(C)C=CC=C4COC5C(O)C(C)=CC(C(=O)O3)C45O)O2)OC(C(C)=CC(C)C)C1C (stereo not shown)" measured=5.91
compound=CC1=C\[C@@H](O)CC(=O)Cc2nc(co2)C(=O)N2CCC=C2C(=O)O[C@H](C(C)C)[C@H](C)/C=C/C(=O)NC\C=C\1 measured=26.94
compound=Cn1c2ccccc2c(=O)c2c(O)cc3c(c21)C=CC(C)(C)O3 measured=95.19

Value lookup for Pf_120h_%Growth_Rep2; key = CCC1(C2OC(C3OC(O)(CO)C(C)CC3C)CC2C)CCC(C2(C)CCC3(CC(O)C(C)C(C(C)C(OC)C(C)C(=O)O)O3)O2)O1 (stereo not shown)
14.66

// Pf_120h_%Growth_Rep2 lookup, key: CC(C)=CC1CC(C)C2(CCC3(C)CC4C(C(=O)CC4(C)O)C(C=O)=CCC32)O1 (stereo not shown)
11.00

Consider the compound shown here: O=C1Cc2ccccc2N1 What is its recorded Pf_120h_%Growth_Rep2?
127.66

# get_value(readout='Pf_120h_%Growth_Rep2', item= CO[C@@H]1[C@@H](OC(N)=O)[C@@H](O)[C@H](Oc2ccc3c(O)c(NC(=O)c4ccc(O)c(CC=C(C)C)c4)c(=O)oc3c2C)OC1(C)C )
13.28
